Every entry's value here was drawn from the supplement of paper PMC6331611.

System: Salmonella enterica serovar Typhimurium SL1344
Test: normalized intracellular growth (luminescence, IQM-normalized) in RAW264.7 macrophages (fraction of plate interquartile mean); higher = more bacterial growth (less inhibition)
Conditions: 10 µM, time point: T3 (3 h)
Whole data set: some 1,600 compounds, median “normalized intracellular growth (luminescence, IQM-normalized) in RAW264.7 macrophages” near 1, cut for the lowest 2% near 0.43. The full list was thinned out, with the lowest values kept by preference.
Experimental endpoint: normalized intracellular growth

Solved entries:
CC(=O)OCC1=C(C(=O)O)N2C(=O)[C@@H](NC(=O)CSc3ccncc3)[C@H]2SC1
1
C=CC1=C(C(=O)O)N2C(=O)[C@@H](NC(=O)/C(=N\O)c3csc(N)n3)[C@H]2SC1
0.973

Here's the next entry for you.
// CO/N=C(\C(=O)N[C@@H]1C(=O)N2C(C(=O)O)=C(C[N+]3(C)CCCC3)CS[C@H]12)c1csc(N)n1 : normalized intracellular growth value = 1.01
